- Protocol Notes: Midazolam pharmacokinetics in rats after 7-day MFE or water pre-treatment
- Condition Parameters: Sprague Dawley, rat, plasma, po

# Compound, Tmax [min]
records = [
    ("Cc1ncc2n1-c1ccc(Cl)cc1C(c1ccccc1F)=NC2 [Midazolam]", 15),
]
